# target.or.test.system: HIV Integrase (Human immunodeficiency virus type 1 group M subtype B, UniProt P04585)
experimental.readout: IC50
Your reply should be a number followed by the unit it is expressed in.

Name the recorded IC50 of the compound listed here: CC=CC1C=CC2CC(C)CCC2C1(C)C(O)=C1C(=O)C(CO)N(C)C1=O (stereo not drawn)
7 µM

Name the recorded IC50 of the compound listed here: CC=CC=CC1C(C)=CC2CC(C)CCC2C1(C)C(O)=C1C(=O)C(CO)N(C)C1=O (stereo not drawn)
11 µM

Name the recorded IC50 of the compound listed here: CCCCCC1C(C)=CC2CC(C)CCC2C1(C)C(O)=C1C(=O)C(CO)N(C)C1=O (stereo not drawn)
5 µM

Data provenance is patent US5759842A.
